Each entry below carries its reported viability at 24 h, 12.5 µM.
Experiment: Cell viability assay (MTS) on BV2 cells
Format: cell-based, mouse
Details: mouse, BV2 microglial cells, compound at 12.5 μM, MTS
Method: BV2 microglial cells (SCSP-5208, Cell Bank, Chinese Academy of Sciences, Shanghai, China) were incubated in high-glucose DMEM supplemented with 10% fetal bovine serum and 1% penicillin and streptomycin in a humidified atmosphere of 5% CO2 at 37 °C. BV2 cells were plated in 96-well microplates at 20,000 cells per well (100 μL/well) and incubated for 24 h. […] After 24 h, the cell viability was measured by MTS assay. The absorbance was detected at 490 nm. […]
// note: answer is a bare numeric in %

compound	quantity_unit	viability at 24 h, 12.5 µM
CCOC(=O)CN1C(=O)/C(=C/C(=O)/C=C/c2ccccc2)c2ccccc21 [Compound 4b]	%	79.5

Lab note: CCCCCc1ccc(C(=O)/C=C2/C(=O)N(CC(=O)OCC)c3ccccc32)cc1 [Compound 4g] gave viability at 24 h, 12.5 µM of 83.9

###

Each entry below carries its reported viability at 24 h, 3.1 µM.
test: Cell viability assay (MTS) on BV2 cells; type: cell-based, mouse; conditions: mouse, BV2 microglial cells, compound at 3.1 μM, MTS, read-out: cell viability (cell survival rate)
// note: answer is a bare numeric in %

Lab note: CCCCCc1ccc(C(=O)/C=C2/C(=O)N(CC(=O)OCC)c3ccccc32)cc1 gave viability at 24 h, 3.1 µM of 98.4

Lab note: CCOC(=O)CN1C(=O)/C(=C/C(=O)/C=C/c2ccccc2)c2ccccc21 gave viability at 24 h, 3.1 µM of 98.3

###

system: NO release from LPS-stimulated BV2 cells; experiment: NO release inhibition in LPS-stimulated BV2 cells (Griess method); assay type: cell-based, mouse; details: Mus musculus, BV-2; LPS-stimulated BV2 cells, compound at 20 μM; read-out: NO inhibition rate
Each entry below carries its reported inhibition at 20 µM.
// note: answer is a bare numeric in %

Answered examples (7):
compound	quantity_unit	quantitative_readout
CCOC(=O)CN1C(=O)/C(=C/C(=O)c2ccc[nH]2)c2ccccc21 [Compound 4r]	%	28
CCOC(=O)CN1C(=O)/C(=C/C(=O)c2cc(OC)c(OC)c(OC)c2)c2cc(OC)ccc21 [Compound 9f]	%	68
CCOC(=O)CN1C(=O)/C(=C/C(=O)c2ccco2)c2ccccc21 [Compound 4q]	%	30
CCOC(=O)CN1C(=O)/C(=C/C(=O)c2cc(OC)c(OC)c(OC)c2)c2cc(I)ccc21 [Compound 9d]	%	22
CCOC(=O)CN1C(=O)/C(=C/C(=O)c2cc(OC)c(OC)c(OC)c2)c2ccccc21 [Compound 4j]	%	71
CCOC(=O)CN1C(=O)/C(=C/C(=O)c2cc(OC)c(OC)c(OC)c2)c2cc(C)ccc21 [Compound 9e]	%	72
CCOC(=O)CN1C(=O)/C(=C/C(=O)/C=C/c2ccccc2)c2ccccc21 [Compound 4b]	%	98

--- query ---
Lab note: CCCCCc1ccc(C(=O)/C=C2/C(=O)N(CC(=O)OCC)c3ccccc32)cc1 [Compound 4g] gave inhibition at 20 µM of 73

###

tested on: NO release from LPS-stimulated BV2 cells; experiment: NO release inhibition in LPS-stimulated BV2 cells (Griess method); assay type: cell-based, mouse; details: BV2 cells induced by LPS, compound at 20 μM, Griess test
experimental_readout: Nitrite (NO release amount) (µM)
// note: answer is a bare numeric in µM

Answered examples (5):
input_smiles	system_name	quantity_unit	quantitative_readout
CCOC(=O)CN1C(=O)/C(=C/C(=O)c2ccc(F)cc2)c2ccccc21	NO release from LPS-stimulated BV2 cells	µM	15.2
CCOC(=O)CN1C(=O)/C(=C/C(=O)c2ccc(OC)cc2)c2ccccc21	NO release from LPS-stimulated BV2 cells	µM	20.6
CCOC(=O)CN1C(=O)/C(=C/C(=O)c2ccc(-c3ccccc3)cc2)c2ccccc21	NO release from LPS-stimulated BV2 cells	µM	19.0
CCOC(=O)CN1C(=O)/C(=C/C(=O)c2ccccn2)c2ccccc21	NO release from LPS-stimulated BV2 cells	µM	11.1
CCOC(=O)CN1C(=O)/C(=C/C(=O)c2ccc(OCC)cc2)c2ccccc21	NO release from LPS-stimulated BV2 cells	µM	15.3

Lab note: CCOC(=O)CN1C(=O)/C(=C/C(=O)C2CC2)c2ccccc21 gave Nitrite (NO release amount) of 16.7

Lab note: CCOC(=O)CN1C(=O)/C(=C/C(=O)c2ccc(CC)cc2)c2ccccc21 gave Nitrite (NO release amount) of 15.2

Lab note: CCCCCc1ccc(C(=O)/C=C2/C(=O)N(CC(=O)OCC)c3ccccc32)cc1 gave Nitrite (NO release amount) of 8.5

Lab note: CCOC(=O)CN1C(=O)/C(=C/C(=O)c2ccc3ccccc3c2)c2ccccc21 gave Nitrite (NO release amount) of 17.0

Lab note: CCOC(=O)CN1C(=O)/C(=C/C(=O)c2ccc(Br)cc2)c2ccccc21 gave Nitrite (NO release amount) of 18.6

Lab note: CCOC(=O)CN1C(=O)/C(=C/C(=O)c2ccc([N+](=O)[O-])cc2)c2ccccc21 gave Nitrite (NO release amount) of 16.7

Lab note: CCOC(=O)CN1C(=O)/C(=C/C(=O)c2ccc(Cl)cc2)c2ccccc21 gave Nitrite (NO release amount) of 17.5

Lab note: CCOC(=O)CN1C(=O)/C(=C/C(=O)c2ccccc2)c2ccccc21 gave Nitrite (NO release amount) of 19.3

Lab note: CCOC(=O)CN1C(=O)/C(=C/C(=O)c2ccc[nH]2)c2ccccc21 gave Nitrite (NO release amount) of 20.5

Lab note: O=C1Nc2ccccc2C1=O gave Nitrite (NO release amount) of 20.8

Lab note: CCOC(=O)CN1C(=O)/C(=C/C(=O)c2ccc(C)cc2)c2ccccc21 gave Nitrite (NO release amount) of 12.5

Lab note: CCOC(=O)CN1C(=O)/C(=C/C(=O)/C=C/c2ccccc2)c2ccccc21 gave Nitrite (NO release amount) of 0.69

Lab note: CCOC(=O)CN1C(=O)/C(=C/C(=O)c2cc(OC)c(OC)c(OC)c2)c2ccccc21 gave Nitrite (NO release amount) of 8.6

Lab note: CCOC(=O)CN1C(=O)/C(=C/C(=O)c2ccco2)c2ccccc21 gave Nitrite (NO release amount) of 20.2

Lab note: CCOC(=O)CN1C(=O)/C(=C/C(=O)c2ccc(C(C)C)cc2)c2ccccc21 gave Nitrite (NO release amount) of 17.1

###

Each entry below carries its reported viability at 24 h, 6.3 μM.
experiment: Cell viability assay (MTS) on BV2 cells; format: cell-based, mouse; details: mouse, BV2 microglial cells, compound at 6.3 μM (printed 6.23 μM for 4b), MTS, read-out: cell viability (cell survival rate)
// note: answer is a bare numeric in %

Lab note: CCCCCc1ccc(C(=O)/C=C2/C(=O)N(CC(=O)OCC)c3ccccc32)cc1 [Compound 4g] gave viability at 24 h, 6.3 μM of 95.1

Lab note: CCOC(=O)CN1C(=O)/C(=C/C(=O)/C=C/c2ccccc2)c2ccccc21 [Compound 4b] gave viability at 24 h, 6.3 μM of 89.9

###

assay: Cell viability assay (MTS) on BV2 cells; format: cell-based, mouse; conditions: mouse, BV2 microglial cells, compound at 25 μM, 24 h, MTS
Each entry below carries its reported viability at 24 h, 25 µM.
// note: answer is a bare numeric in %

input_smiles	viability at 24 h, 25 µM [%]
CCOC(=O)CN1C(=O)/C(=C/C(=O)/C=C/c2ccccc2)c2ccccc21	48

--- query ---
Lab note: CCCCCc1ccc(C(=O)/C=C2/C(=O)N(CC(=O)OCC)c3ccccc32)cc1 gave viability at 24 h, 25 µM of 42

###

test system: NO release from LPS-stimulated BV2 cells; experiment: NO release inhibition in LPS-stimulated BV2 cells (Griess method); assay type: cell-based, mouse; conditions: Mus musculus, BV-2; LPS-stimulated BV2 cells, 24 h
pIC50: −log10 of the molar value.
Rule: true for pIC50 not less than 5, false for anything less.

Solved cases (3 shown):
input_smiles	answer_label
CCCCCCCOC(=O)CN1C(=O)/C(=C/C(=O)c2cc(OC)c(OC)c(OC)c2)c2ccccc21	false
CCOC(=O)CN1C(=O)/C(=C/C(=O)c2cc(OC)c(OC)c(OC)c2)c2ccccc21	false
CCCCCCCCCCCOC(=O)CN1C(=O)/C(=C/C(=O)c2cc(OC)c(OC)c(OC)c2)c2ccccc21	true

Check this compound for pIC50 at or above 5: COc1cc(C(=O)/C=C2/C(=O)N(CC(=O)OCCCc3ccccc3)c3ccccc32)cc(OC)c1OC
true

Check this compound for pIC50 at or above 5: CCOC(=O)CN1C(=O)/C(=C/C(=O)/C=C/c2ccccc2)c2ccccc21
true

###

Each entry below carries its reported IC50.
system: NO release from LPS-stimulated BV2 cells; experiment: NO release inhibition in LPS-stimulated BV2 cells (Griess method); assay type: cell-based, mouse; conditions: Mus musculus, BV-2; LPS-stimulated BV2 cells, 24 h
// note: answer is a bare numeric in µM

Answered examples (4):
compound	quantitative_readout
CCOC(=O)CN1C(=O)/C(=C/C(=O)c2cc(OC)c(OC)c(OC)c2)c2cc(OC)ccc21 [Compound 9f]	10.4
CCOC(=O)CN1C(=O)/C(=C/C(=O)c2cc(OC)c(OC)c(OC)c2)c2cc(C)ccc21 [Compound 9e]	10.3
COc1cc(C(=O)/C=C2/C(=O)N(CC(=O)OCCc3ccccc3)c3ccccc32)cc(OC)c1OC [Compound 5f]	10.7
CCCCCc1ccc(C(=O)/C=C2/C(=O)N(CC(=O)OCC)c3ccccc32)cc1 [Compound 4g]	10.8

--- query ---
Lab note: COC(=O)CN1C(=O)/C(=C/C(=O)c2cc(OC)c(OC)c(OC)c2)c2ccccc21 [Compound 5a] gave IC50 of 10.9
